Source: a collection of fitness landscapes (doi:10.1126/science.1257360)

Quick reference: enrichment ratio of the listed items.
B1: PhoQ; a variant is named by its letters at X, in order, P23837 (parent)
chain: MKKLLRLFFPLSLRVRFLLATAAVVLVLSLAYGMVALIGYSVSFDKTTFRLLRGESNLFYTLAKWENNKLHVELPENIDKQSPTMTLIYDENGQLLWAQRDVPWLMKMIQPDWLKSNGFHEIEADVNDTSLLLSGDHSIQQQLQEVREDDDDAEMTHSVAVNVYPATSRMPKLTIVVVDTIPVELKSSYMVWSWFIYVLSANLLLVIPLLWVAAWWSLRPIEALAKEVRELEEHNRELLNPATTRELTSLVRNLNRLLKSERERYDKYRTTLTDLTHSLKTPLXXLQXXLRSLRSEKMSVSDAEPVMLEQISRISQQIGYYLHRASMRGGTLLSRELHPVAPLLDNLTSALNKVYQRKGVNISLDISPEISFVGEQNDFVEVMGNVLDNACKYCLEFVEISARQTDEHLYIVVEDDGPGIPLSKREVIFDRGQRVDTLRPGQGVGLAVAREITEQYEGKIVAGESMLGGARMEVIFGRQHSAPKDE

Variants of: B1
Experiment: enrichment ratio after two sorts for PhoP signalling (ratio (wild type AVST 3.29)); higher = more functional
Details: with PhoP (E. coli)
Over roughly 140,000 sequences, “enrichment ratio after two sorts for PhoP signalling” has its median near 0; the highest 2% begin near 11. The sample as a whole holds a higher share of the highest values than the screen did.
Number only, please.

Completed entries (count: 3):
mutations=SALS readout_value=11.5
mutations=AQLM readout_value=19.4
mutations=SALN readout_value=11.9

Which value of enrichment ratio has been reported for "SYIG" in the records?
11.3

And what about the variant "TKLM" ?
21.3

And what about the variant "STMG" ?
9.85

And what about the variant "TQLG" ?
16.7

And what about the variant "THLM" ?
12.3

And what about the variant "SAMK" ?
17.9

And what about the variant "SYMG" ?
12.5

And what about the variant "TGLG" ?
10.1
